Molecular target: T1, Human IL-18BP (amino acids 31-194), biotinylated (human, UniProt O95998 31-194, biotin on the AviTag (BirA ligase) where used biotinylated)
T1 construct: Soluble decoy receptor; also called hIL-18BP; recombinant IL-18BP
T1 sequence: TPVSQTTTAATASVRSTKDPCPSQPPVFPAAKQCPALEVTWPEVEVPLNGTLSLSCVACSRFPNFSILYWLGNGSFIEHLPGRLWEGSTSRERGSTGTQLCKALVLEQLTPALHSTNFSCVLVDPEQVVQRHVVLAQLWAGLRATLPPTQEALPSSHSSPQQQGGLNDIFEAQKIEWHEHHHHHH
Assay: on-yeast binding isotherms; KD ratio relative to WT IL-18; yeast-displayed variant; ratio normalized to WT, from the 20 µM placeholder
endpointName: Dissociation Constant Ratio normalized to WT IL-18

INSERT INTO assay_data (binder, result) VALUES
  ('SEQ ID NO: 90 (second generation human DR-IL-18 variant 6-27) (ligand, Engineered variant; recombinant soluble analyte in SPR and cell assays) YFGKLESKLSVIRNLNDQVLFIDQGNRPLFEDMTDSDCRDNAPRTIFIISKYSDSRARGLAVTISVKCEKISTLSCENKIISFKEMNPPDNIKDTKSDIIFFARSVPGHGRKTQFESSSYEGYFLACEKERDLFKLILKKEDELGDRSIMFTVQNED', '> 7000');

Documented Dissociation Constant Ratio normalized to WT IL-18 of SEQ ID NO: 87 (second generation human DR-IL-18 variant 6-31) (ligand, Engineered variant; recombinant soluble analyte in SPR and cell assays) YFGKLESKLSVIRNLNDQVLFIDQGNRPLFEDMTDSDCRDNAPRTIFIISKYGDSGARGLAVTISVKCEKISTLSCENKIISFKEMNPPDNIKDTKSDIIFFERDVPGHSGKVQFESSSYEGYFLACEKERDLFKLILKKEDELGDRSIMFTVQNED : > 7200

The origin of these recorded values is patent US20230277625A1.
